B1: APBB1IP (parent)
chain: SQVSMWDQRWQDHQPLLPITDVP

variants of: B1; assay: protein stability index of a GFP-peptide fusion (GPS, HEK-293T) (PSI 1-6); higher = more stable; settings: c terminus: native;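 note: lentivirally expressed fusions sorted by FACS into six bins by GFP to DsRed ratio, PSI derived from sequencing read proportions per bin multiplied by bin number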
outcome_measure: protein stability index

Worked examples follow.
change	protein stability index
T20M	2.04
S1C	2.69
P18A	2.91
S4E	3.8
S4K	2.15
D7R	1.77

Next item in the queue.
Query: Quick one: protein stability index of `L17S` ?
Response: 2.34
